Molecular target: T1, Pot1-DBD_S123A (Schizosaccharomyces pombe, UniProt O13988 1-389, S123A)
T1 sequence: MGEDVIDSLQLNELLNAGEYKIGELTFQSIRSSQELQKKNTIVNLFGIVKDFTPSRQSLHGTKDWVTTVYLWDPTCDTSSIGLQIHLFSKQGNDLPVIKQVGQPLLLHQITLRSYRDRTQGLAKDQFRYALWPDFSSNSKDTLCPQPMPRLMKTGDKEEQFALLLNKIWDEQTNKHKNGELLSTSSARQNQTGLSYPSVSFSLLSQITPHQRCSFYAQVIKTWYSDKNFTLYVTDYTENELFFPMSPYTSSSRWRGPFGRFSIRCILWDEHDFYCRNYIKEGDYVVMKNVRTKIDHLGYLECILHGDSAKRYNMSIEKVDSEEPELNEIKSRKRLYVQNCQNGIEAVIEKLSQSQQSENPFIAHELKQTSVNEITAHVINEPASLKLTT
Experiment: EMSA
MEASURED_PARAMETER: Kd (pM)
API: value field is a number in pM; no unit string.

BINDER	Kd (pM)
GGTTACGGTTAC (ssDNA) [12mer]	8.2

Pending binder:
# get_value(readout='Kd', item= GGTTACGGTTACGGT (ssDNA) [15mer] ) 3.7

Data provenance is paper PMC3184176.
